Consider the following molecules; for each one, report its pIC50.
molecular target: HIV-1 integrase (wild-type IN) (Human immunodeficiency virus type 1 group M subtype B); experiment: HIV-1 integrase 3′-processing assay (32P-labeled 21-mer, gel); type: biochemical; details: unit inferred; read-out: HIV-1 IN Inhibitory Activities 3′-processing
Give bare numbers, as −log10 of the molar value.

Some molecules with known pIC50 results, for comparison:
molecule | experimental_system | pIC50
COc1ccc(N(CC(=O)N/N=C/c2c(O)ccc3ccccc23)S(C)(=O)=O)cc1Cl [Example X279] | HIV-1 integrase (wild-type IN) (Human immunodeficiency virus type 1 group M subtype B) | 4.02
O=C(/C=C/c1ccc(Cl)cc1)Nc1ccc(NC(=O)c2ccco2)cc1 [Example X159] | HIV-1 integrase (wild-type IN) (Human immunodeficiency virus type 1 group M subtype B) | 4.05
O=C(Nc1ccccc1C(=O)O)c1cccc(S(=O)(=O)Nc2cccc([N+](=O)[O-])c2)c1 [Example X148] | HIV-1 integrase (wild-type IN) (Human immunodeficiency virus type 1 group M subtype B) | 4.05

For each of the items listed, what is its pIC50?
1. O=C(O)CCCCCN1C(=O)C(O)=C(C(=O)c2ccc(Cl)cc2)C1c1ccc2c(c1)OCO2 (centres unmarked) [Compound T38]
2. COc1ccc2oc(=O)c(-c3csc(N/N=C/c4ccco4)n3)cc2c1 [Compound X144]

Ans.
1. 4.60
2. 4.11

For each of the items listed, what is its pIC50?
1. COc1cc(/C=N/NC2=NC(=O)C(CC(=O)Nc3ccc(Cl)c(Cl)c3)S2)ccc1O (centres unmarked) [Example X278]
2. O=C(COc1ccccc1[N+](=O)[O-])Nc1ccc(O)c(-c2nc3ccccc3s2)c1 [Compound X257]
3. O=C(O)C(Cc1c[nH]c2ccccc12)NS(=O)(=O)c1ccccc1[N+](=O)[O-] (centres unmarked) [Example X182]
4. Cc1ccc(C2C(C(=O)c3ccc(Cl)cc3)=C(O)C(=O)N2CC(=O)O)cc1 (centres unmarked) [Compound X81]

Ans.
4.05
4.00
4.06
4.08

For each of the items listed, what is its pIC50?
1. O=C(N/N=C/c1ccc(/C=N/NC(=O)c2cc(O)cc(O)c2)cc1)c1cc(O)cc(O)c1 [Example X218]
2. COc1ccc(C(=O)Nc2ccc(O)c(-c3nc4ccccc4o3)c2)cc1[N+](=O)[O-] [XR17]

Ans.
1: 4.12; 2: 5.22

---

biological target: HIV-1 integrase (wild-type IN) (Human immunodeficiency virus type 1 group M subtype B, UniProt P12497); assay: HIV-1 integrase 3′-processing assay (32P-labeled 21-mer, gel); type: biochemical; conditions: unit inferred; read-out: IN inhibition activity 3′-processing
Consider the following compounds; for each one, report its log10 IC50.
Annotation: log10 of IC50, µM basis.

compound | log10 IC50
Nc1c(C(=O)Nc2ccc(Cl)c(Cl)c2)sc2[nH]c(=O)c(C(=O)O)cc12 [GLD44] | 1.15

For each of the items listed, what is its log10 IC50?
1. O=C(CSc1nnc(-c2ccccc2)n1Cc1ccccc1)NNC(=O)c1ccccc1O [AS90]
2. N#Cc1c(-c2ccc(Cl)cc2)cc(-c2ccccc2)nc1SCC(=O)O [GLD2A2]
3. O=C(O)c1cccc(-c2ccc(/C=N/Nc3nc4nonc4nc3Nc3ccc(F)cc3)o2)c1 [AV30]
4. CC(C)(C)c1ccc(C2C(C(=O)c3ccc(F)cc3)=C(O)C(=O)N2c2nncs2)cc1 (stereo not drawn) [Compound M28A2]
5. COc1ccc(-c2nnc(SCC(=O)NNC(=O)c3ccccc3O)n2-c2ccccc2)cc1OC [AS9A10]
6. N#Cc1c(/N=C/c2ccc(-c3cccc(C(=O)O)c3)o2)sc2c1CCCC2 [AV15A23]
7. COc1cccc(NC(=O)c2sc3[nH]c(=O)c(C(=O)O)cc3c2N)c1 [GLD45]
8. O=C(O)c1cccc(-c2ccc(/C=N/Nc3nc4ccccc4s3)o2)c1 [AV15A43]

Ans.
[1.32, 1.99, 1.00, 1.81, 1.34, 1.95, 1.91, 1.80]

For each of the items listed, what is its log10 IC50?
1. O=C(O)c1cccc(-c2ccc(/C=N/Nc3nc(Nc4ccccc4)nc(Nc4ccccc4)n3)o2)c1 [AV15A42]
2. Cc1ccc(-n2c(SCC(=O)NNC(=O)c3ccccc3O)nnc2-c2ccccc2O)cc1 [AS9]

Ans.
1.95
0.70

For each of the items listed, what is its log10 IC50?
1. COc1cc(/C=N/Nc2nc3nonc3nc2Nc2ccccc2F)ccc1O [AV15A18]
2. N#C/C(=C\c1ccc(-c2ccc(Cl)c(C(=O)O)c2)o1)c1nc2ccccc2[nH]1 [AV15A10]

Ans.
1: 1.48; 2: 1.88
